Source of measurements: the RNAGym collection of RNA variant scans (doi:10.1101/gr.219683.116)

So I've got a bunch of variants here, and I need their exon inclusion enrichment index values.
B1: mRNA-splicing (parent)
chain: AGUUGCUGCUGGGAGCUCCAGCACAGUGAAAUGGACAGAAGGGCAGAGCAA

Variants of: B1
Method description: exon inclusion enrichment index; higher = more inclusion; WT1 exon 5 minigene, HEK293
Would you mind answering with just the numeric figure?

Reported exon inclusion enrichment index, variant AGUUGCUGCUGGGAGCUCCAGCACAGUGAGCUGGACAGAAGGGCAGAGCAA : ____
0.126

Reported exon inclusion enrichment index, variant AGUUAGGGAUGCUAGCUCCAGCACAGUGAAAUGGACAGAAGGGCAGAGCAA : ____
0.000686

Reported exon inclusion enrichment index, variant AGUUGACGACGGGAGCUCCAGCACAGUGAUGUGGACAGAAGGGCAGAGCAA : ____
3.73

Reported exon inclusion enrichment index, variant AGUUUUCACCGGGAGCUCCAGCACAGUGAAAUGGACAGAAGGGCAGAGCAA : ____
1.85
